Molecular target: hS1P1 (Homo sapiens, UniProt P21453)
Construct: expressed in transfected cells; host or cells: CHO
Sequence (P21453 whole entry): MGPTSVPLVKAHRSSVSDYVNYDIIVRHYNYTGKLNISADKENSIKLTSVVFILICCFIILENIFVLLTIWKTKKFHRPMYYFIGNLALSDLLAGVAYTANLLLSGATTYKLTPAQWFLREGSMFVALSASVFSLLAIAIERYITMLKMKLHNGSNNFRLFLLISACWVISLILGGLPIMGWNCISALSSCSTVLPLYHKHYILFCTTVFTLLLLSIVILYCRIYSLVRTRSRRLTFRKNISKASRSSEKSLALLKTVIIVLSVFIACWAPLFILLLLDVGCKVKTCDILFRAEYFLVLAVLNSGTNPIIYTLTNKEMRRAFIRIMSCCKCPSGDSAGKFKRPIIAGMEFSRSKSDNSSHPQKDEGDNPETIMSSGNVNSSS
Assay: Tango β-arrestin recruitment luciferase assay, Tango-hS1P1-CHO
Type: cell-based
Details: S1PR1; Tango-S1PR1-CHO-K1 cells; mean ± SD; read-out: EC50
Form field: pEC50 (one value per entry).
Interpret pEC50 as the negative base-10 log of the concentration measured in mol/L.

The following compounds have reported results that may help.
INSERT INTO assay_data (compound, target_system, recorded_number) VALUES
  ('CCc1cc(/C(C)=N/OCc2ccc(-c3ccccc3)c(C)c2)ccc1CN1CC[C@H](C(=O)O)C1 [Compound 30]', 'hS1P1 (Homo sapiens, UniProt P21453)', 7.06),
  ('CCc1cc(/C(C)=N/OCc2ccc(-c3cnc(F)cn3)c(C)c2)ccc1CN1CC[C@H](C(=O)O)C1 [Compound 67]', 'hS1P1 (Homo sapiens, UniProt P21453)', 6.71);

Now examine the next entry.
The measured pEC50 that CCCCCCCCCCCCC/C=C/[C@@H](O)[C@@H](N)COP(=O)(O)O [Compound S1P, Sphingosine-1-phosphate, reference compound] showed for hS1P1 (Homo sapiens, UniProt P21453) is 8.07

###

The entries below come with measured EC50 values attached.
Target: hS1P4-R-79C (Homo sapiens, UniProt O95977, R79C)
Sequence (O95977 whole entry R79C): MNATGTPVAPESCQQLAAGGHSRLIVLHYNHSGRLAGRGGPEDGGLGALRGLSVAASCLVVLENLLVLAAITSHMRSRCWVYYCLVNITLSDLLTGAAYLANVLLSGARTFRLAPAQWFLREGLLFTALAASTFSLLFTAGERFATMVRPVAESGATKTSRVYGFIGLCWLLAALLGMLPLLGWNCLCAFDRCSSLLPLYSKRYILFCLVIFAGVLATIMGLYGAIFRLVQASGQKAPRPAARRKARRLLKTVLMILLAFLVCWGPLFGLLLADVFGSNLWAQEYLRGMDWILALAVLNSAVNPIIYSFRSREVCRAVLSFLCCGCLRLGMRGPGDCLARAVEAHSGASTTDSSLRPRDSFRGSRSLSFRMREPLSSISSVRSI
Assay: Tango β-arrestin recruitment luciferase assay, Tango-hS1P4-R-79C-CHO (S1PR4 mutant)
Details: 20 h drug treatment
State the answer as a number, implicitly in nM.

The following compounds have reported results that may help.
INSERT INTO measurements (compound, uom, recorded_number) VALUES
  ('CCc1cc(/C(C)=N/OCc2ccc(-c3ccccc3)c(C)c2)ccc1CN1CC[C@H](C(=O)O)C1 [Compound 30]', 'nM', 15),
  ('CCc1cc(/C(C)=N/OCc2ccc(-c3ccccc3)c(C)c2)ccc1CNCCC(=O)O [Compound 31]', 'nM', 73.1),
  ('CCc1cc(/C(C)=N/OCc2ccc(-c3ccccc3)c(C)c2)ccc1CN1CC[C@@H](C(=O)O)C1 [Compound 29]', 'nM', 87.2);

What the record says about CCc1cc(/C(C)=N/OCc2ccc(-c3ccccc3)c(C)c2)ccc1CN1CC(C(=O)O)C1 [Compound 22] : EC50 is 27

###

Experiment: Pharmacokinetic property testing in rats
Type: in vivo, SD rats
Conditions: Sprague-Dawley, rat, in vivo; IV (1 mg/kg); male SD rats, 3 per group
PROPERTY_NAME: Tmax

INSERT INTO measurements (mol_smiles, result) VALUES
  ('CCc1cc(/C(C)=N/OCc2ccc(-c3cnc(F)cn3)c(C)c2)ccc1CN1CC[C@H](C(=O)O)C1', '4.8 min'),
  ('CCc1cc(/C(C)=N/OCc2ccc(-c3ccccc3)c(C)c2)ccc1CN1CC(C(=O)O)C1', '4.8 min');

For this compound ( CCc1cc(/C(C)=N/OCc2ccc(-c3ccccc3)c(C)c2)ccc1CN1CC[C@H](C(=O)O)C1 ), measured Tmax is 4.8 min

###

Test: Pharmacokinetic property testing in rats
Type: in vivo, SD rats
Conditions: Sprague-Dawley, rat, in vivo; PO (10 mg/kg); male SD rats
PROPERTY_NAME: Cmax (ng/mL)
Write down the numeric answer in ng/mL and omit the unit.

For orientation, consider the following solved cases.
INSERT INTO assay_data (compound, uom, recorded_number) VALUES
  ('CCc1cc(/C(C)=N/OCc2ccc(-c3ccccc3)c(C)c2)ccc1CN1CC(C(=O)O)C1 [Compound 22]', 'ng/mL', 544),
  ('CCc1cc(/C(C)=N/OCc2ccc(-c3cnc(F)cn3)c(C)c2)ccc1CN1CC[C@H](C(=O)O)C1 [Compound 67]', 'ng/mL', 986);

// next item, Cmax requested
// sample CCc1cc(/C(C)=N/OCc2ccc(-c3ccccc3)c(C)c2)ccc1CN1CC[C@H](C(=O)O)C1 [Compound 30] , its Cmax was 1030

Where do these numbers come from? They come from patent EP4790048A1.
